Data provenance: paper PMC6744468

Target: LC3B (ITC sample) (human, UniProt Q9GZQ8 1-120)
Assay: ITC; 0.4 mM PCM1 LIR peptide titrated into 0.025 mM LC3 and GABARAP proteins in 21 steps, 25 °C, 50 mM Tris-HCl pH 7.4, 100 mM NaCl, one-site binding model
Conditions: both partners purified
Property Name: Kd (µM)
Numbers only; they are read as µM.

IN: Param item = SDEEDFVKVEDLPLKLTIY (PCM1, human, residues 1958-1976 with the core LIR FVKV; also called PCM1 LIR peptide; PCM LIR peptide; source: synthetic peptide, bought: GenScript Inc) [Human PCM1 LIR-contained peptide] ; retrieve measured Kd.
OUT: 76
